# pEC50 per entry
System: AKT1 phosphorylation
Assay: Western blot of AKT1 phosphorylation in BEAS-2B cells
Format: cell-based
Details: Homo sapiens, 30 min pre-treatment, TNF 10 ng/ml 30 min, western blot (S2 Fig.), read-out: EC50 for block of AKT1 phosphorylation
pEC50: −log10 of the molar value.

Indicate its recorded pEC50; the molecule in question is `Oc1cccc(-c2nc(N3CCOCC3)c3oc4ncccc4c3n2)c1` ~7.15

Indicate its recorded pEC50; the molecule in question is `O=c1cc(N2CCOCC2)oc2c(-c3ccccc3)cccc12` ~6.05

Indicate its recorded pEC50; the molecule in question is `COC[C@H]1OC(=O)c2coc3c2[C@@]1(C)C1=C(C3=O)[C@@H]2CCC(=O)[C@@]2(C)C[C@H]1OC(C)=O` ~7.70
